- ASSAY_DETAILS: RP, Waters ACQUITY UPLC BEH C18, 50 × 2.1 mm, 1.7 µm, 40 °C, 0.6 mL/min, estimated dead time 0.18 min; A: water + 0.1% formic acid, pH 3; B: acetonitrile + 0.1% formic acid, pH 3; gradient (min/%B) 0/5 7/100 8/100
- EXPERIMENTAL_SETUP: stereoisomer not certain
# thresholds on LC retention time define classes: low band (below 2 min), middle band (2 min to below 3 min), high band (3 min or more)

>>> print(df.to_string())
                                   molecule   class_name
0  C[C@@H]1CC2(N=CCS2)[C@]2(O)OC3C[C@@]4(C=O)C(CCC5C4CC[C@]4(C)C(C6=CC(=O)OC6)CC[C@]54O)CC3OC2O1 (stereo not given in full)     low band
1  COc1cc2c3cc1Oc1c(cccc1OC)CC1c4c(cc(O)c(OC)c4Oc4cccc(c4)CC3N(C)CC2)CCN1C (stereo not given)     low band
2  CC(C)=CCC1CC2(CC=C(C)C)C(O)=C(C(=O)CC(C)C)C(=O)OC2=C(C(CC(=O)O)c2ccccc2)C1(C)C (stereo not given)    high band
3  CCN1CC2(COC(=O)c3ccccc3N3C(=O)CC(C)C3=O)CCC(OC)C34C5CC6C(OC)CC(O)(C5C6OC)C(O)(C(OC)C23)C14 (stereo not given)  middle band
4  C/C(=C\CC/C=C(\C)CC/C=C(\C)CCC(O)C(C)(O)CO)CC/C=C(\C)CCC(O)C(C)(C)O (stereo not given)    high band
5  CCC(O)c1cc(=O)oc2c(C(=O)CC(C)C)c(O)c(CC=C(C)C)c(O)c12 (stereo not given)    high band
6  O=C(c1ccc(O)cc1O)[C@H]1[C@H](C(=O)c2ccc(O)cc2O)[C@H](c2ccc(O)cc2)O[C@@H]1c1ccc(O)cc1  middle band
7  COc1cc2c(cc1O)CC1NCCc3cc(OC)c(OC)c-2c31 (stereo not given)     low band
8  C=C(C(=O)C(OC(C)=O)C(C)C1C(OC(C)=O)CC2(C)C3C4OC4C4C(C)C(=O)C=CC45CC35CCC12C)C(C)CO (stereo not given)    high band
